These data points were gathered from paper PMC10941009.

Target: T1, NFIL3 bZIP (short) (human, UniProt Q16649 65-136)
T1 sequence: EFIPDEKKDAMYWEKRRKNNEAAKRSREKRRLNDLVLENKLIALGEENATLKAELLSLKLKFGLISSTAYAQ
Test: ITC; ITC: 20 mM Tris pH 7.5, 150 mM NaCl, 25 °C; EMSA: same buffer, 4 °C, 6% native gel in 0.5x TBE
Settings: protein: recombinant; tags: His6-SUMO removed by TEV; chain copies: 2; blunt
experimental-readout: pKd
Keep in mind that pKd stands for -log10 of concentration in molar terms.

Form: binder = TTACGTAA (dsDNA) DNA 1: CATTACGTAATG DNA 2: CATTACGTAATG ; pKd = 7.28
